Molecular target: T1, recombinant human HGF (R&D Systems, Catalog No. 294-HGN-025) (human, UniProt P14210 32-728)
T1 construct: Mature HGF is a disulfide-linked heterodimer of alpha and beta chain cut from one precursor; also called rhHGF (R&D Systems); rhHGF
T1 sequence (P14210 32-728 limits assumed): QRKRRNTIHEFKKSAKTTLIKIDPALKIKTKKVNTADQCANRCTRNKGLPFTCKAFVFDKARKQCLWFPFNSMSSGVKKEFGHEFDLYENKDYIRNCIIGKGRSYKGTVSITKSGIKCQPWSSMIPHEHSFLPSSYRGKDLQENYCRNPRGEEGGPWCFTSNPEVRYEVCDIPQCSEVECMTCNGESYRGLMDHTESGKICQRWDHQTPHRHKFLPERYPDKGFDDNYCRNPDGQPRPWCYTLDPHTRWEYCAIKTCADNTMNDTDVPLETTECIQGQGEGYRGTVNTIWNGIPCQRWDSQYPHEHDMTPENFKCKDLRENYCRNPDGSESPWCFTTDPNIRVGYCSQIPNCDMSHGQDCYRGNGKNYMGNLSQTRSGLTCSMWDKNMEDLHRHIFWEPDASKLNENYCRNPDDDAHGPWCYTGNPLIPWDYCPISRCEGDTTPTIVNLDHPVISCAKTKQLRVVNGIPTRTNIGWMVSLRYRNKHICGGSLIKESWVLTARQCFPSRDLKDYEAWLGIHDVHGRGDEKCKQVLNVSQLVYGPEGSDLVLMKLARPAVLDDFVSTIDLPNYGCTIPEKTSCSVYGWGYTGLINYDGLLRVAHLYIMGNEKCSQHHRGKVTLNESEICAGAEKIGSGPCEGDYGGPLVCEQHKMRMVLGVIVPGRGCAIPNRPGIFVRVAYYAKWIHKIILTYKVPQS
Assay: SPR (BIAcore T100), antibody captured on mouse anti-human immunoglobulin CM4 chip, HGF 1.88, 3.75 and 7.5 nM injected, 25 C
# koff per entry
Property Label: koff (s⁻¹)

1) Kappa Hu2B8_Kv3-15.1 / Heavy Hu2B8_Hv1-f.1 (antibody, human IgG1, kappa, V domains shown, also called Hu2B8 Hv1-f.1 + IgG1 Constant heavy chain with Hu2B8 Kv3-15.1 + Kappa Constant light chain) VH: EVQLVQSGAEVKKPGATVKISCKVSGYTFTTYWMHWVQQAPGKGLEWMGEINPTNGHTNYNEKFQGRVTITADTSTDTAYMELSSLRSEDTAVYYCATNYVGSIFDYWGQGTLVTVSS VL: EIVMTQSPATLSVSPGERATLSCKASENVVSYVSWYQQKPGQAPRLLIYGASNRNTGIPARFSGSGSGTEFTLTISSLQSEDFAVYYCGQSYNYPYTFGQGTKLEIKR    0.0037
2) Kappa Chimeric 2B8 / Heavy Hu2B8_Hv5-a.1 (antibody, human IgG1, kappa, V domains shown, also called Hu2B8 Hv5-a.1 + IgG1 Constant heavy chain with Chimeric 2B8 Kappa light chain) VH: EVQLVQSGAEVKKPGESLRISCKGSGYSFTTYWMHWVRQMPGKGLEWMGEINPTNGHTNYNPSFQGHVTISADKSISTAYLQWSSLKASDTAMYYCARNYVGSIFDYWGQGTLVTVSS VL: NIVMTQSPKSMSMSVGERVTLSCKASENVVSYVSWYQQKPAQSPKLLIYGASNRNTGVPDRFTGSGSATDFTLTISSVRAEDLADYHCGQSYNYPYTFGGGTRLEIKR    1.1e-05
3) Kappa Hu2B8_Kv1-39.1 / Heavy Chimeric 2B8 (antibody, human IgG1, kappa, V domains shown, also called Chimeric 2B8 IgG1 heavy chain with Hu2B8 Kv1-39.1 + Kappa Constant light chain) VH: QVQLQQPGAELVKPGTSVKLSCKASGYTFTTYWMHWVNQRPGQGLEWIGEINPTNGHTNYNEKFKSKATLTVDKSSSTAYMQLSSLTSEDSAVYYCARNYVGSIFDYWGQGTTLTVSS VL: DIQMTQSPSSLSASVGDRVTITCKASENVVSYVSWYQQKPGKAPKLLIYGASNRNTGVPSRFSGSGSGTDFTLTISSLQPEDFATYYCGQSYNYPYTFGQGTKLEIKR    3.9e-05
